Test system: rabbit skeletal myofibrils (approximately 90% fast fibers)
protocol.text: Activation of fast skeletal myofibrils (PUMA coupled-enzyme ATPase assay at pCa25)
Type: biochemical
details: concentration at which the compound increased the enzymatic activity by 40%; calcium at pCa25; PM12 buffer pH 6.8
observed.property: Mean AC1.4

Here are 4 compounds together with their reported answers.
sample_smiles=CC(C)(Nc1ncc(-c2cnc(C(N)=O)s2)cn1)c1ncccc1Cl result="B (B=1-10 uM)"
sample_smiles=CNC(=O)c1cccc(-c2cnc(NC[C@]3(c4ncccc4F)C[C@H](F)C3)nc2)c1 result="B (B=1-10 uM)"
sample_smiles=CC(C)(CNc1ncc2c(n1)CN(C(N)=O)CC2)c1ccc(F)cc1 result="D (D=>20 uM)"
sample_smiles=CS(=O)(=O)NCc1cnc(-c2cnc(NCC3(c4ncccc4F)CCC3)nc2)s1 result="B (B=1-10 uM)"

Now consider a different compound.
*Q* Entry under review: CC(C)(Nc1ncc(-c2nc(CC(N)=O)cs2)cn1)c1ncccc1F . Reported Mean AC1.4?
*A* D (D=>20 uM)

====

Test system: rabbit skeletal myofibrils (approximately 90% fast fibers)
protocol.text: Activation of fast skeletal myofibrils (PUMA coupled-enzyme ATPase assay at pCa25)
Assay type: biochemical
details: concentration at which the compound increased the enzymatic activity by 40%; calcium at pCa25; PM12 buffer pH 6.8
observed.property: Mean AC1.4

Here are 10 compounds together with their reported answers.
compound=O=C(Nc1cnc(NCC2(c3ncccc3F)CCC2)nc1)c1nccs1 system_name="rabbit skeletal myofibrils (approximately 90% fast fibers)" result="D (D=>20 uM)"
compound=CC(C)(Nc1ncc(-c2cnc3cc[nH]c3c2)cn1)c1ncccc1Cl system_name="rabbit skeletal myofibrils (approximately 90% fast fibers)" result="A (A=<1 uM)"
compound=CC(C)(Nc1ncc(-c2nnc(C(N)=O)s2)cn1)c1ncccc1Cl system_name="rabbit skeletal myofibrils (approximately 90% fast fibers)" result="D (D=>20 uM)"
compound=CC(C)(Nc1ncc(-c2cc(C(N)=O)ccc2F)cn1)c1cccc(OC(F)F)n1 system_name="rabbit skeletal myofibrils (approximately 90% fast fibers)" result="A (A=<1 uM)"
compound=COC(=O)CNC(=O)c1cnc(NCC2(c3ncccc3F)CCC2)nc1 system_name="rabbit skeletal myofibrils (approximately 90% fast fibers)" result="D (D=>20 uM)"
compound=NC(=O)c1ccnc(-c2cnc(NC[C@]3(c4ncccc4F)C[C@H](F)C3)nc2)n1 system_name="rabbit skeletal myofibrils (approximately 90% fast fibers)" result="B (B=1-10 uM)"
compound=COc1ccc(NC(=O)c2cnc(NCC3(c4ncccc4F)CCC3)nc2)cn1 system_name="rabbit skeletal myofibrils (approximately 90% fast fibers)" result="D (D=>20 uM)"
compound=CC(C)(CNc1ncc(C(=O)NC2(C(N)=O)CC2)cn1)c1ccc(F)cc1 system_name="rabbit skeletal myofibrils (approximately 90% fast fibers)" result="D (D=>20 uM)"
compound=CC(C)(C)OC(=O)NCc1cnc(-c2cnc(NCC3(c4ccccn4)CCC3)nc2)s1 system_name="rabbit skeletal myofibrils (approximately 90% fast fibers)" result="B (B=1-10 uM)"
compound=CC(C)(CNc1ncc(-c2ccc3[nH]c(=O)[nH]c3c2)cn1)c1ccc(F)cc1 system_name="rabbit skeletal myofibrils (approximately 90% fast fibers)" result="B (B=1-10 uM)"

*Q* Entry under review: CC(C)(Nc1ncc(-c2ncc(C#N)s2)cn1)c1ncccc1F . Reported Mean AC1.4?
*A* D (D=>20 uM)

*Q* Entry under review: NC(=O)c1cnc(NCC2(c3ncccc3F)CCC2)nc1 . Reported Mean AC1.4?
*A* D (D=>20 uM)

*Q* Entry under review: CC(C)(Nc1ncc(-n2cc(CNC(=O)CCN)cn2)cn1)c1ncccc1Cl . Reported Mean AC1.4?
*A* B (B=1-10 uM)

*Q* Entry under review: CC(C)(Nc1ncc(Br)cn1)c1ccc(F)cc1 . Reported Mean AC1.4?
*A* C (C=10-20 uM)

====

System: rabbit skeletal myofibrils (approximately 90% fast fibers)
protocol.text: Activation of fast skeletal myofibrils (PUMA coupled-enzyme ATPase assay at pCa25)
Assay type: biochemical
details: concentration at which the compound increased the enzymatic activity by 40%; calcium at pCa25; PM12 buffer pH 6.8
observed.property: Mean AC1.4

molecule="C[S+]([O-])c1cccnc1C(C)(C)Nc1ncc(-c2cccc(C(N)=O)c2)cn1 (centres unmarked)" observed_property="Mean AC1.4" result="D (D=>20 uM)"
molecule=NC(=O)c1ccc(O)c(-c2cnc(NCC3(c4ncccc4F)CCC3)nc2)c1 observed_property="Mean AC1.4" result="A (A=<1 uM)"
molecule=CNC(=O)c1ccc(F)c(-c2cnc(NC[C@]3(c4ncccc4F)C[C@H](F)C3)nc2)c1 observed_property="Mean AC1.4" result="A (A=<1 uM)"
molecule=Fc1cccnc1C1(Nc2ncc3ccccc3n2)CCC1 observed_property="Mean AC1.4" result="D (D=>20 uM)"

====

Tested on: rabbit skeletal myofibrils (approximately 90% fast fibers)
protocol.text: Activation of fast skeletal myofibrils (PUMA coupled-enzyme ATPase assay at pCa25)
Format: biochemical
details: concentration at which the compound increased the enzymatic activity by 40%; calcium at pCa25; PM12 buffer pH 6.8
observed.property: Mean AC1.4

Here are 4 molecules together with their reported answers.
sample_smiles=CN(C(=O)c1ccnc(NCC2(c3ncccc3F)CCC2)n1)c1ccccc1 observed_property="Mean AC1.4" result="D (D=>20 uM)"
sample_smiles=CCOC(=O)c1csc(-c2cnc(NCC3(c4ncccc4F)CCC3)nc2)n1 observed_property="Mean AC1.4" result="D (D=>20 uM)"
sample_smiles=CC(C)(c1ncccc1S(C)(=O)=O)N(O)c1ncc(-c2cccc(C(N)=O)c2)cn1 observed_property="Mean AC1.4" result="D (D=>20 uM)"
sample_smiles=CC(C)(CNc1ncc2c(n1)CN(C(=O)C(N)=O)CC2)c1ccc(F)cc1 observed_property="Mean AC1.4" result="D (D=>20 uM)"

*Q* Form entry - test system: rabbit skeletal myofibrils (approximately 90% fast fibers); read-out: Mean AC1.4; molecule: CC(=O)Nc1ccccc1-c1cnc(NC[C@]2(c3ncccc3F)C[C@H](F)C2)nc1
*A* D (D=>20 uM)

*Q* Form entry - test system: rabbit skeletal myofibrils (approximately 90% fast fibers); read-out: Mean AC1.4; molecule: COc1ccnc(C(C)(C)Nc2ncc(-c3ncc(C(N)=O)s3)cn2)n1
*A* D (D=>20 uM)

*Q* Form entry - test system: rabbit skeletal myofibrils (approximately 90% fast fibers); read-out: Mean AC1.4; molecule: CC(=O)NCc1cnc(-c2cnc(NC(C)(C)c3ncccc3Cl)nc2)s1
*A* C (C=10-20 uM)

*Q* Form entry - test system: rabbit skeletal myofibrils (approximately 90% fast fibers); read-out: Mean AC1.4; molecule: CC(C)(C)OC(=O)NCCNC(=O)c1cnc(NCC2(c3ncccc3F)CCC2)nc1
*A* D (D=>20 uM)

*Q* Form entry - test system: rabbit skeletal myofibrils (approximately 90% fast fibers); read-out: Mean AC1.4; molecule: Cc1nc(NC[C@]2(c3ncccc3F)C[C@H](F)C2)ncc1-c1cccc(CC(N)=O)c1
*A* C (C=10-20 uM)

====

System: rabbit skeletal myofibrils (approximately 90% fast fibers)
protocol.text: Activation of fast skeletal myofibrils (PUMA coupled-enzyme ATPase assay at pCa25)
Type: biochemical
details: concentration at which the compound increased the enzymatic activity by 40%; calcium at pCa25; PM12 buffer pH 6.8
Source text: Preparation of fast skeletal myofibrils. […] Activation of Fast Skeletal Myofibrils. […] This assay regenerates myosin-produced ADP into ATP by oxidizing NADH, producing an absorbance change at 340 nm. […]
observed.property: Mean AC1.4

Here are 4 molecules together with their reported answers.
sample_smiles=CC(C)(Nc1ncc(Br)cn1)c1ncccc1F result="D (D=>20 uM)"
sample_smiles=O=C(Nc1nccs1)c1cnc(NCC2(c3ncccc3F)CCC2)nc1 result="B (B=1-10 uM)"
sample_smiles=COc1ncc(-c2cnc(NC[C@]3(c4ncccc4F)C[C@H](F)C3)nc2)cn1 result="D (D=>20 uM)"
sample_smiles=CC(C)(C)OC(=O)NCC(=O)NCc1cnn(-c2cnc(NC(C)(C)c3ncccc3Cl)nc2)c1 result="D (D=>20 uM)"

*Q* Entry under review: NC(=O)c1csc(-c2cnc(NCC3(c4ncccc4F)CCC3)nc2)n1 . Reported Mean AC1.4?
*A* B (B=1-10 uM)

====

Tested on: rabbit skeletal myofibrils (approximately 90% fast fibers)
protocol.text: Activation of fast skeletal myofibrils (PUMA coupled-enzyme ATPase assay at pCa25)
Assay type: biochemical
details: concentration at which the compound increased the enzymatic activity by 40%; calcium at pCa25; PM12 buffer pH 6.8
observed.property: Mean AC1.4

sample_smiles=CC(C)(Nc1ncc(-n2cc(C(=O)NCCO)cn2)cn1)c1ncccc1Cl observed_property="Mean AC1.4" result="D (D=>20 uM)"
sample_smiles=O=C(O)c1cnc(NC2(c3ccc(F)cc3)CCC2)nc1C(F)(F)F observed_property="Mean AC1.4" result="D (D=>20 uM)"

====

Tested on: rabbit skeletal myofibrils (approximately 90% fast fibers)
protocol.text: Activation of fast skeletal myofibrils (PUMA coupled-enzyme ATPase assay at pCa25)
Format: biochemical
details: concentration at which the compound increased the enzymatic activity by 40%; calcium at pCa25; PM12 buffer pH 6.8
observed.property: Mean AC1.4

sample_smiles=Fc1cccnc1C1(Nc2nccc(C(F)(F)F)n2)CCC1 result="D (D=>20 uM)"
sample_smiles=CC(C)(Nc1ncc(-c2ncc(CNC(=O)C3(N)CC3)s2)cn1)c1ncccc1F result="D (D=>20 uM)"
sample_smiles=Cn1nc(-c2cnc(NC(C)(C)c3ncccc3Cl)nc2)cc1C(N)=O result="D (D=>20 uM)"
sample_smiles=CC(C)(Nc1ncc(-c2noc(C(N)=O)n2)cn1)c1ncccc1Cl result="D (D=>20 uM)"
sample_smiles=CC(C)(C)NC(=O)c1cc(-c2cnc(NC(C)(C)c3ncccc3Cl)nc2)cnn1 result="D (D=>20 uM)"
sample_smiles=CC(C)(Nc1ncc(-c2ncc(CN)s2)cn1)c1ncccc1F result="D (D=>20 uM)"
sample_smiles=O=C(Nc1ccncc1)c1cnc(NCC2(c3ncccc3F)CCC2)nc1 result="B (B=1-10 uM)"

Now consider a different compound.
*Q* Entry under review: CC(C)(Nc1ncc(-c2c[nH]c(=O)c(C(N)=O)c2)cn1)c1ncccc1Cl . Reported Mean AC1.4?
*A* B (B=1-10 uM)

Origin of values: patent US11369565B2
